- tested_system: Cbl-B (Homo sapiens, UniProt Q13191)
- Construct: MSD-Based Assay for Degradation of Cbl-B in THP-1 Cells; endogenous in cells; host or cells: THP-1 (title) / Jurkat (protocol text)
- Sequence (Q13191 whole entry): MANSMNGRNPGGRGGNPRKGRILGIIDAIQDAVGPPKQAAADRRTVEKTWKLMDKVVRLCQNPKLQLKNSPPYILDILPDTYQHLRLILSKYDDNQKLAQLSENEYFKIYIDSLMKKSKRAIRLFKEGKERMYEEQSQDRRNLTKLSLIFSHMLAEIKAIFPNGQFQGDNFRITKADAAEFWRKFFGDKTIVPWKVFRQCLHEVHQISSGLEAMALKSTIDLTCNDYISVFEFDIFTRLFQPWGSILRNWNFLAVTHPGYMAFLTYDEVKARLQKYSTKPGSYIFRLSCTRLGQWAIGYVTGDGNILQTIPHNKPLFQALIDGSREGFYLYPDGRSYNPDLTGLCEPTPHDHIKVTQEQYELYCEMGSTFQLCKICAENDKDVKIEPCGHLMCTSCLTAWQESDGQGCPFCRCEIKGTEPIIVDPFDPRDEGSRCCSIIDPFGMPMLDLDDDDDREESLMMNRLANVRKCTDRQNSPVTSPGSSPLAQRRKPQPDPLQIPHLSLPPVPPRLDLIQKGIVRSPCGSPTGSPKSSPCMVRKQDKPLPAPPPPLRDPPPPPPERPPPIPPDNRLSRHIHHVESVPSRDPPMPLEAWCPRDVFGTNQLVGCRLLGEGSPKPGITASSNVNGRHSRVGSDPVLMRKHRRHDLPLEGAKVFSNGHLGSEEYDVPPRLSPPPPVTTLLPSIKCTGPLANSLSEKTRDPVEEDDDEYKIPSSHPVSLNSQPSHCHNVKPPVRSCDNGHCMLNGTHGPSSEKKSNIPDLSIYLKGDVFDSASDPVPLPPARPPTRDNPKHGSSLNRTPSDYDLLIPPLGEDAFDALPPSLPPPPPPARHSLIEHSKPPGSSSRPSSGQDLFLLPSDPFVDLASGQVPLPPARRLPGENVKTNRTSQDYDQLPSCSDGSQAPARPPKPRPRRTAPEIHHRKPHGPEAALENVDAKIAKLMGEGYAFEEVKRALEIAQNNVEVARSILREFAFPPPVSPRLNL
- procedure_summary: MSD-based assay for degradation of Cbl-B in THP-1 cells
- Format: cell-based
- condition_info: Cbl-B degradation, Jurkat cells seeded (heading: THP-1 cells), 24 hours incubation, MSD readout; read-out: Dmax
Catalogue of Dmax readings, one per entry.

{"compound": "Cn1cnnc1[C@@H](c1cccc(-n2cc3c(C(F)(F)F)cc(CN4CCC(OCCOCc5ccc(CN6CCN(c7cccc8c7C(=O)N(C7CCC(=O)NC7=O)C8=O)CC6)cc5)CC4)cn3c2=O)c1)C1CCC1 (some centres unmarked)", "observable": "Dmax", "result": "< 30%"}

Could you now consider this next compound?
Suppose we examine the compound Cn1cnnc1[C@@H](c1cccc(-n2cc3c(C(F)(F)F)cc(CN4CCC(OCc5ccc(CC6CCN(c7ccc8c(c7)CN([C@H]7CCC(=O)NC7=O)C8=O)CC6)cc5)CC4)cn3c2=O)c1)C1CCC1 (single isomer, unassigned) ; what Dmax value has been reported?
> 70%
